A collection of compounds and their measured IC50
biological target: CRAF (Homo sapiens, UniProt P04049); assay: CRAF kinase activity assay (ADP-Glo); assay type: biochemical; settings: read-out: Kinase IC50 (nM) CRAF
Sequence (P04049 whole entry, looked up): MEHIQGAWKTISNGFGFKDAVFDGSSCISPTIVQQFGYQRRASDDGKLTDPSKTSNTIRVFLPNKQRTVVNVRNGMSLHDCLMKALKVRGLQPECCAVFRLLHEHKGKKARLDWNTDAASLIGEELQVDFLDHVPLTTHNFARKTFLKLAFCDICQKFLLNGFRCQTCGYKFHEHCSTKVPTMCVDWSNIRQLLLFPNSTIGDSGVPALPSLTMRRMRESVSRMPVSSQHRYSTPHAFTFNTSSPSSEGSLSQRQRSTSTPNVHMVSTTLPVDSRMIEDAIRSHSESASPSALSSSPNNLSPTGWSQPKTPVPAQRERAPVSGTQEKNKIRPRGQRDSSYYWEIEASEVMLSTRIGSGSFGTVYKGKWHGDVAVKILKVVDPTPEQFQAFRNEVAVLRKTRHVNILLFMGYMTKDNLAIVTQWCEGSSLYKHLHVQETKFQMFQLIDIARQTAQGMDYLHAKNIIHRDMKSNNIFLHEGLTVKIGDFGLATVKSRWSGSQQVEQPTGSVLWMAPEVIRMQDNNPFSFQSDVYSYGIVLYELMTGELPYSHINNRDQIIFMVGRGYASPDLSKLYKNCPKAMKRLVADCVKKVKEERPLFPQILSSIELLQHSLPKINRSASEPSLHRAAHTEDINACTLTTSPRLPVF

Here is how some compounds turned out for IC50.
entrySmiles	quantityKind	value
CCc1ccc(S(=O)(=O)Nc2ccc(F)c(Nc3ncnc4ccc(-n5cnc6ccccc65)nc34)c2F)cc1	IC50	> 50 nM
CNCc1cccc2c1ncn2-c1ccc2ncnc(Nc3c(F)ccc(NS(=O)(=O)c4ccccc4Cl)c3F)c2n1	IC50	10 to 50 nM
COC1CN(Cc2cccc3c2ncn3-c2ccc3ncnc(Nc4c(F)ccc(NS(=O)(=O)c5ccccc5Cl)c4F)c3n2)C1	IC50	> 50 nM
O=S(=O)(Nc1ccc(F)c(Nc2ncnc3ccc(-n4cnc5ccccc54)nc23)c1F)c1ccc(C(F)(F)F)cc1Cl	IC50	> 50 nM
CN(C)C(=O)c1cn(-c2ccc3ncnc(Nc4c(F)ccc(NS(=O)(=O)c5ccccc5Cl)c4F)c3n2)c2cccc(N)c12	IC50	> 50 nM
COc1ccc(S(=O)(=O)Nc2ccc(F)c(Nc3ncnc4ccc(-n5cnc6c(N)cccc65)nc34)c2F)c(C)c1	IC50	10 to 50 nM
COc1ccc(S(=O)(=O)Nc2ccc(F)c(Nc3ncnc4ccc(-c5cnn6ccccc56)nc34)c2F)c(C)c1	IC50	> 50 nM
Cc1c(Cl)cccc1S(=O)(=O)Nc1ccc(F)c(Nc2ncnc3ccc(-n4cnc5c(O)cccc54)nc23)c1F	IC50	< 10 nM
CC(=O)Nc1cccc2c1ncn2-c1ccc2ncnc(Nc3c(F)ccc(NS(=O)(=O)c4ccccc4Cl)c3F)c2n1	IC50	10 to 50 nM
Cc1c(Cl)cccc1S(=O)(=O)Nc1ccc(F)c(Nc2ncnc3ccc(-n4nnc5c(O)cccc54)nc23)c1F	IC50	< 10 nM

// switching to the query compound
Prompt: Can you share its IC50? I mean this compound: O=S(=O)(Nc1ccc(F)c(Nc2ncnc3ccc(-n4cnc5c(CN6CCCC6)cccc54)nc23)c1F)c1ccccc1Cl
Completion: 10 to 50 nM
